From: paper PMC5874716

- Test system: human erythrocytes
- Experiment Description: Haemolysis assay
- Format: cell-based
- Condition Context: concentration causing lysis of 50% of human red blood cells; at least three times in duplicates
Non-standard residues stand in square brackets, D forms with d. Residues, ends and D or L forms follow the SMILES beside them. βAla = NCCC(=O)O
Consider the following compounds and their measured Haemolytic Activity LC50 readings.
Quantity Measured: Haemolytic Activity LC50

- CC[C@@H](C)[C@@H](NC(=O)[C@@H](CCCCN)NC(=O)[C@@H](CCCCN)NC(=O)[C@@H](CC(C)C)NC(=O)[C@@H](CC(C)C)NC(=O)[C@@H](CCCCN)NC(=O)[C@H](NC(=O)[C@@H](Cc1c[nH]c2ccccc12)NC(=O)[C@@H](CCCCN)NC(=O)CN)C(C)C)C(=O)N[C@H](CC(C)C)C(=O)N[C@H](CCCCN)C(N)=O [VII] (H-G[dK][dW][dV][dK][dL][dL][dK][dK][dI][dL][dK]-NH2; N-terminus assumed): >400 µM
- CC[C@@H](C)[C@@H](NC(=O)[C@@H](CCCCN)NC(=O)[C@@H](CCCCN)NC(=O)[C@@H](CC(C)C)NC(=O)[C@@H](CC(C)C)NC(=O)[C@@H](CCCCN)NC(=O)[C@@H](CCSC)NC(=O)[C@@H](Cc1c[nH]c2ccccc12)NC(=O)[C@@H](CCCCN)NC(=O)CN)C(=O)N[C@H](CC(C)C)C(=O)N[C@H](CCCCN)C(N)=O [II] (H-G[dK][dW][dM][dK][dL][dL][dK][dK][dI][dL][dK]-NH2; N-terminus assumed): >400 µM
- CC[C@@H](C)[C@@H](NC(=O)[C@@H](CCCCN)NC(=O)[C@@H](CCCCN)NC(=O)[C@@H](CC(C)C)NC(=O)[C@@H](CC(C)C)NC(=O)[C@@H](CCCCN)NC(=O)[C@@H](CCSC)NC(=O)[C@@H](Cc1c[nH]c2ccccc12)NC(=O)[C@H](N)CCCCN)C(=O)N[C@H](CC(C)C)C(=O)N[C@H](CCCCN)C(N)=O [X] (H-[dK][dW][dM][dK][dL][dL][dK][dK][dI][dL][dK]-NH2; N-terminus assumed): >400 µM
- CC[C@@H](C)[C@@H](NC(=O)[C@@H](CCCCN)NC(=O)[C@@H](CCCCN)NC(=O)[C@@H](CC(C)C)NC(=O)[C@@H](CC(C)C)NC(=O)[C@@H](CCCCN)NC(=O)[C@@H](CCSC)NC(=O)[C@@H](Cc1c[nH]c2ccccc12)NC(=O)[C@@H](CCCCN)NC(=O)CCN)C(=O)N[C@H](CC(C)C)C(=O)N[C@H](CCCCN)C(N)=O [XII] (H-[βAla][dK][dW][dM][dK][dL][dL][dK][dK][dI][dL][dK]-NH2; N-terminus assumed): >400 µM
- CC[C@H](C)[C@H](NC(=O)[C@H](CCCCN)NC(=O)[C@H](CCCCN)NC(=O)[C@@H](CC(C)C)NC(=O)[C@H](CC(C)C)NC(=O)[C@H](CCCCN)NC(=O)[C@H](CCSC)NC(=O)[C@H](Cc1c[nH]c2ccccc12)NC(=O)[C@H](CCCCN)NC(=O)CN)C(=O)N[C@@H](CC(C)C)C(=O)N[C@@H](CCCCN)C(N)=O [VIII] (H-GKWMKL[dL]KKILK-NH2; N-terminus assumed): >400 µM
- CC[C@H](C)[C@H](NC(=O)[C@H](CCCCN)NC(=O)[C@H](CCCCN)NC(=O)[C@H](CC(C)C)NC(=O)[C@H](CC(C)C)NC(=O)[C@H](CCCCN)NC(=O)[C@H](CCSC)NC(=O)[C@H](Cc1c[nH]c2ccccc12)NC(=O)[C@H](CCCCN)NC(=O)CCN)C(=O)N[C@@H](CC(C)C)C(=O)N[C@@H](CCCCN)C(N)=O [XI] (H-[βAla]KWMKLLKKILK-NH2; N-terminus assumed): 270 µM
